# CHI C18 per entry
- TEST DETAILS: Lipophilicity by gradient RP-HPLC (C18, pH 7.4): CHI, chrom logD, PFI
- Type: physicochemical
- STATED CONDITIONS: C18 at pH 7.4

SAMPLE SMILES: Cl.Clc1ccccc1Nc1nc(NCCNc2ccccc2)nc(N2CCOCC2)n1
CHI C18: 102.9
--
SAMPLE SMILES: Cl.Clc1ccccc1Nc1nc(NCCOc2ccccc2)nc(N2CCOCC2)n1
CHI C18: 104.4
--
SAMPLE SMILES: Cl.Clc1ccccc1Nc1nc(N2CCOCC2)nc(N2CCN(c3nsc4ccccc34)CC2)n1
CHI C18: 108.4
--
SAMPLE SMILES: Cl.Clc1ccccc1Nc1nc(NCCCc2ccccc2)nc(N2CCOCC2)n1
CHI C18: 117.6
--
SAMPLE SMILES: Cl.Clc1ccccc1Nc1nc(NCc2ccccc2)nc(N2CCOCC2)n1
CHI C18: 103.1
--
SAMPLE SMILES: Cl.Clc1ccccc1Nc1nc(Nc2ccccc2)nc(N2CCOCC2)n1
CHI C18: 106
--
SAMPLE SMILES: Cl.Clc1ccccc1Nc1nc(N2CCOCC2)nc(N2CCN(c3ccccc3)CC2)n1
CHI C18: 107
--
SAMPLE SMILES: Cl.Fc1ccc(N2CCN(CCNc3nc(Nc4ccccc4Cl)nc(N4CCOCC4)n3)CC2)cc1
CHI C18: 112.6

---

- TEST DETAILS: Lipophilicity by gradient RP-HPLC (C18, pH 7.4): CHI, chrom logD, PFI
- Type: physicochemical
- Set-up: key: PFI = Chrom logD7.4 + number of aromatic rings
- STATED CONDITIONS: PFI = Chrom logD7.4 + #Ar; threshold 7

SAMPLE SMILES: Cl.Clc1ccccc1Nc1nc(NCc2ccccc2)nc(N2CCOCC2)n1
PFI (Property Forecast Index): 6.95
--
SAMPLE SMILES: Cl.Clc1ccccc1Nc1nc(NCCNc2ccccc2)nc(N2CCOCC2)n1
PFI (Property Forecast Index): 6.94
--
SAMPLE SMILES: Cl.Clc1ccccc1Nc1nc(N2CCOCC2)nc(N2CCN(c3ccccc3)CC2)n1
PFI (Property Forecast Index): 7.15
--
SAMPLE SMILES: Cl.Clc1ccccc1Nc1nc(Nc2ccccc2)nc(N2CCOCC2)n1
PFI (Property Forecast Index): 7.10
--
SAMPLE SMILES: Cl.Clc1ccccc1Nc1nc(NCCOc2ccccc2)nc(N2CCOCC2)n1
PFI (Property Forecast Index): 7.01

---

# chromatographic logD per entry
- TEST DETAILS: Lipophilicity by gradient RP-HPLC (C18, pH 7.4): CHI, chrom logD, PFI
- Assay type: physicochemical
- STATED CONDITIONS: C18 Hypersil GOLD reversed-phase HPLC column, pH 7.4, C18 column, pH 7.4; Chrom logD = 0.0525 × CHI − 1.467
RECORDED METRIC: chromatographic logD

MOLECULE: Cl.Clc1ccccc1Nc1nc(NCc2ccccc2)nc(N2CCOCC2)n1 [Compound 5]
RECORDED METRIC: chromatographic logD
RESULT VALUE: 3.95
//
MOLECULE: Cl.Fc1ccc(N2CCN(CCNc3nc(Nc4ccccc4Cl)nc(N4CCOCC4)n3)CC2)cc1 [Compound 7]
RECORDED METRIC: chromatographic logD
RESULT VALUE: 4.44
//
MOLECULE: Cl.Clc1ccccc1Nc1nc(Nc2ccccc2)nc(N2CCOCC2)n1 [Compound 4]
RECORDED METRIC: chromatographic logD
RESULT VALUE: 4.1
//
MOLECULE: Cl.Clc1ccccc1Nc1nc(N2CCOCC2)nc(N2CCN(c3nsc4ccccc34)CC2)n1 [Compound 9]
RECORDED METRIC: chromatographic logD
RESULT VALUE: 4.23
